Source: patent US11242337B2

# inhibition at 1 µM listing for each entry below
System: human ileum monolayer culture
Test: Sustained inhibition of apical acid secretion in human organoid monolayer cell cultures (ileum)
Assay type: cell-based
Details: Homo sapiens, 48 h; 1 μM apical, dosed day 6, apical media pH day 8, vs DMSO

Reference set, count: 3
- Compound: "Cc1cc(S(=O)(=O)N2CC[C@@H](COCCOCCNC(=O)NCCCCNC(=O)NCCOCCOC[C@@H]3CCN(S(=O)(=O)c4ccc(O[C@H]5c6cc(Cl)cc(Cl)c6C[C@@H]5N(C)C)c(C)c4)C3)C2)ccc1O[C@H]1c2cc(Cl)cc(Cl)c2C[C@@H]1N(C)C [Example 45]"
  inhibition at 1 µM: "50 to 70%"
- Compound: "Cc1cc(S(=O)(=O)NCCOCCOCCNC(=O)NCCCCNC(=O)NCCOCCOCCNS(=O)(=O)c2ccc(O[C@H]3c4cc(Cl)cc(C)c4C[C@@H]3N3CCC[C@@H](N(C)C)C3)c(C)c2)ccc1O[C@H]1c2cc(Cl)cc(C)c2C[C@@H]1N1CCC[C@@H](N(C)C)C1 [Example 29]"
  inhibition at 1 µM: "> 70%"
- Compound: "CN(C)[C@H]1Cc2c(Cl)cc(Cl)cc2[C@@H]1Oc1ccc(S(=O)(=O)NCCOCCOCCNC(=O)NCCCCNC(=O)NCCOCCOCCNS(=O)(=O)c2ccc(O[C@H]3c4cc(Cl)cc(Cl)c4C[C@@H]3N(C)C)c(F)c2)cc1F [Example 23]"
  inhibition at 1 µM: "50 to 70%"

--- query ---
Request: # query: inhibition at 1 µM of entry O=C(NCCCCNC(=O)NCCOCCOCCNS(=O)(=O)c1ccc(O[C@H]2c3cc(Cl)cc(Cl)c3C[C@@H]2N2CCNCC2)c(F)c1)NCCOCCOCCNS(=O)(=O)c1ccc(O[C@H]2c3cc(Cl)cc(Cl)c3C[C@@H]2N2CCNCC2)c(F)c1 [Example 33]
Response: > 70%

---

Target: NHE3 (Homo sapiens, UniProt P48764)
Construct: expressed in transfected cells
Sequence (P48764 26-834): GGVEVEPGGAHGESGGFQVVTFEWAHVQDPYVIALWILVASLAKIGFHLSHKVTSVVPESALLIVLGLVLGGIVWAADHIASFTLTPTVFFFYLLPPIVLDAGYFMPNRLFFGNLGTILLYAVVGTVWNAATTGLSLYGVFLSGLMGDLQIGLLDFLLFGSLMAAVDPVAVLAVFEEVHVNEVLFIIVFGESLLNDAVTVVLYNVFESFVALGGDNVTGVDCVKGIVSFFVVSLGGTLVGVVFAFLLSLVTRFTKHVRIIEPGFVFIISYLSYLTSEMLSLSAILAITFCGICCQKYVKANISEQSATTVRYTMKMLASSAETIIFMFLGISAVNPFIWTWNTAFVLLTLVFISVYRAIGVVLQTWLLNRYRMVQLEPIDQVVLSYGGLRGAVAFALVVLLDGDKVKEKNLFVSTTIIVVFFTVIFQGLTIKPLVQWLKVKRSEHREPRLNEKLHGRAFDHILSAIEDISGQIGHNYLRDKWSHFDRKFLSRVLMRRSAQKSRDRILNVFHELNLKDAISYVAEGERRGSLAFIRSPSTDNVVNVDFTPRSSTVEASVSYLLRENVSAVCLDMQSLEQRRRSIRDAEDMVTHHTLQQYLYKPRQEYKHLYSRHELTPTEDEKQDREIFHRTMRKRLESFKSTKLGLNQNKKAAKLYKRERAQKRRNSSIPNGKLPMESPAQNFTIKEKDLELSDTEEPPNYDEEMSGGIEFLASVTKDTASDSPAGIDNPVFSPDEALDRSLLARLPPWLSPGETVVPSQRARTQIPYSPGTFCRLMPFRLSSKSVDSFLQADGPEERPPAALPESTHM
Sequence (Q99653 2-195 partner limits assumed): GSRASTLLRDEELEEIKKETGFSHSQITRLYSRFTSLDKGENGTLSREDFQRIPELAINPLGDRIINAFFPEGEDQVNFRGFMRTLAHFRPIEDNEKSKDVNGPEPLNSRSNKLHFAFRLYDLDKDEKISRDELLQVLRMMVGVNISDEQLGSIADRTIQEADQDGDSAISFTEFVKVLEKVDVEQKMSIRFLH
Test: Cell-based assay of NHE-3 activity (persistent inhibition), human
Settings: human Persistence, 60 min incubation then washout
Measured metric: IC50

- Molecule: "O=C(NCCCCNC(=O)NCCOCCN1CC[C@@H](NS(=O)(=O)c2ccc(O[C@H]3c4cc(Cl)cc(Cl)c4C[C@@H]3N3CCNCC3)c(F)c2)C1)NCCOCCN1CC[C@@H](NS(=O)(=O)c2ccc(O[C@H]3c4cc(Cl)cc(Cl)c4C[C@@H]3N3CCNCC3)c(F)c2)C1 [Example 105]"
  Readout value: "< 100 nM"
- Molecule: "CN(C)C(=O)N1CCN([C@H]2Cc3c(Cl)cc(Cl)cc3[C@@H]2Oc2ccc(S(=O)(=O)NCCOCCOCCNC(=O)NCCCCNC(=O)NCCOCCOCCNS(=O)(=O)c3ccc(O[C@H]4c5cc(Cl)cc(Cl)c5C[C@@H]4N4CCN(C(=O)N(C)C)CC4)cc3)cc2)CC1 [Example 76]"
  Readout value: "> 1000 nM"

Request: # query: IC50 of entry Cc1cc(S(=O)(=O)NCCCCCCCCNC(=O)NCCCCNC(=O)NCCCCCCCCNS(=O)(=O)c2ccc(O[C@H]3c4cc(Cl)cc(Cl)c4C[C@@H]3N3CCC[C@@H](N)C3)c(C)c2)ccc1O[C@H]1c2cc(Cl)cc(Cl)c2C[C@@H]1N1CCC[C@@H](N)C1 [Example 63]
Response: 100 to 1000 nM

Request: What about this molecule? N[C@@H]1CCCN([C@H]2Cc3c(Cl)cc(Cl)cc3[C@@H]2Oc2ccc(S(=O)(=O)NCCOCCOCCn3cc(CNC(=O)NCCCCNC(=O)NCc4cn(CCOCCOCCNS(=O)(=O)c5ccc(O[C@H]6c7cc(Cl)cc(Cl)c7C[C@@H]6N6CCC[C@@H](N)C6)cc5)nn4)nn3)cc2)C1 [Example 56]
Response: < 100 nM

---

Target: NHE3 (Homo sapiens)
Construct: expressed in transfected cells
Assay: Cell-based assay of NHE-3 activity (persistent inhibition), human
Conditions: human Persistence, 60 min incubation then washout
Measured metric: pIC50

- Structure as smiles: "O=C(NCCCCNC(=O)NCCOCCOCCNS(=O)(=O)c1ccc(O[C@H]2c3cc(Cl)cc(Cl)c3C[C@@H]2N2C3CCCC2CCC3)cc1)NCCOCCOCCNS(=O)(=O)c1ccc(O[C@H]2c3cc(Cl)cc(Cl)c3C[C@@H]2N2C3CCCC2CCC3)cc1"
  pIC50: "A (NHE3 pIC50 < 6)"
- Structure as smiles: "C[C@@H]1CCCCN1[C@H]1Cc2c(Cl)cc(Cl)cc2[C@@H]1Oc1ccc(S(=O)(=O)NCCOCCOCCNC(=O)NCCCCNC(=O)NCCOCCOCCNS(=O)(=O)c2ccc(O[C@H]3c4cc(Cl)cc(Cl)c4C[C@@H]3N3CCCC[C@H]3C)cc2)cc1"
  pIC50: "A (NHE3 pIC50 < 6)"
- Structure as smiles: "C[C@H]1CN([C@H]2Cc3c(C#N)cc(Cl)cc3[C@@H]2Oc2ccc(S(=O)(=O)N[C@@H]3CCN(CCOCCNC(=O)NCCCCNC(=O)NCCOCCN4CC[C@@H](NS(=O)(=O)c5ccc(O[C@H]6c7cc(Cl)cc(C#N)c7C[C@@H]6N6CCN[C@@H](C)C6)cc5)C4)C3)cc2)CCN1"
  pIC50: "C (NHE3 pIC50 > 7)"
- Structure as smiles: "Cc1cc(S(=O)(=O)NCCOCCOCCNC(=O)NCCCCNC(=O)NCCOCCOCCNS(=O)(=O)c2ccc(O[C@H]3c4cc(Cl)cc(C(F)(F)F)c4C[C@@H]3N(C)C)c(C)c2)ccc1O[C@H]1c2cc(Cl)cc(C(F)(F)F)c2C[C@@H]1N(C)C"
  pIC50: "A (NHE3 pIC50 < 6)"
- Structure as smiles: "Cc1cc(S(=O)(=O)NCCOCCOCCNC(=O)NCCCCNC(=O)NCCOCCOCCNS(=O)(=O)c2ccc(O[C@H]3c4cc(Cl)cc(Cl)c4C[C@@H]3N3CCN(C)CC3)c(C)c2)ccc1O[C@H]1c2cc(Cl)cc(Cl)c2C[C@@H]1N1CCN(C)CC1"
  pIC50: "A (NHE3 pIC50 < 6)"
- Structure as smiles: "C[C@@H]1CN([C@H]2Cc3c(C#N)cc(Cl)cc3[C@@H]2Oc2ccc(S(=O)(=O)N[C@H]3CCN(CCOCCNC(=O)NCCCCNC(=O)NCCOCCN4CC[C@H](NS(=O)(=O)c5ccc(O[C@H]6c7cc(Cl)cc(C#N)c7C[C@@H]6N6CCN[C@H](C)C6)cc5)C4)C3)cc2)CCN1"
  pIC50: "C (NHE3 pIC50 > 7)"

Request: # query: pIC50 of entry N#Cc1cc(Cl)cc2c1C[C@H](N1CCNCC1)[C@H]2Oc1ccc(S(=O)(=O)N[C@H]2CCN(C(=O)CCCNC(=O)NCCCCNC(=O)NCCCC(=O)N3CC[C@H](NS(=O)(=O)c4ccc(O[C@H]5c6cc(Cl)cc(C#N)c6C[C@@H]5N5CCNCC5)cc4)C3)C2)cc1
Response: C (NHE3 pIC50 > 7)

---

Target: NHE3 (Homo sapiens)
Construct: expressed in transfected cells
Test: Cell-based assay of NHE-3 activity (persistent inhibition), human
Settings: human Persistence, 60 min incubation then washout
pIC50: −log10 of the molar value. Counter-ions that a name gives are not always drawn.
Measured metric: pIC50

Reference set, count: 5
- Compound: "N#Cc1cc(Cl)cc2c1C[C@H](N1C[C@@H]3C[C@H]1CN3)[C@H]2Oc1ccc(S(=O)(=O)N[C@@H]2CCN(CCOCCNC(=O)NCCCCNC(=O)NCCOCCN3CC[C@@H](NS(=O)(=O)c4ccc(O[C@H]5c6cc(Cl)cc(C#N)c6C[C@@H]5N5C[C@@H]6C[C@H]5CN6)cc4)C3)C2)cc1 [Example 131, bis(trifluoroacetic acid)]"
  Experimental target: "NHE3 (Homo sapiens)"
  pIC50: "6.00 to 7.00"
- Compound: "Cc1cc(S(=O)(=O)NCCOCCOCCNC(=O)NCCCCNC(=O)NCCOCCOCCNS(=O)(=O)c2cc(C)c(O[C@H]3c4cc(Cl)cc(Cl)c4C[C@@H]3N(C)C)cc2F)c(F)cc1O[C@H]1c2cc(Cl)cc(Cl)c2C[C@@H]1N(C)C [Example 90]"
  Experimental target: "NHE3 (Homo sapiens)"
  pIC50: "6.00 to 7.00"
- Compound: "Cc1cc(S(=O)(=O)NCCOCCOCCNC(=O)NCCCCNC(=O)NCCOCCOCCNS(=O)(=O)c2cc(C)c(O[C@H]3c4cc(Cl)cc(Cl)c4C[C@@H]3N3CCC[C@@H](N)C3)c(C)c2)cc(C)c1O[C@H]1c2cc(Cl)cc(Cl)c2C[C@@H]1N1CCC[C@@H](N)C1 [Example 79, hydrochloride]"
  Experimental target: "NHE3 (Homo sapiens)"
  pIC50: "6.00 to 7.00"
- Compound: "Cc1cc(S(=O)(=O)NCCOCCOCCNC(=O)NCCCCNC(=O)NCCOCCOCCNS(=O)(=O)c2cc(C)c(O[C@H]3c4cc(Cl)cc(Cl)c4C[C@@H]3N(C)C)c(C)c2)cc(C)c1O[C@H]1c2cc(Cl)cc(Cl)c2C[C@@H]1N(C)C [Example 80]"
  Experimental target: "NHE3 (Homo sapiens)"
  pIC50: "6.00 to 7.00"
- Compound: "N#Cc1cc(Cl)cc2c1C[C@H](N1C[C@@H]3C[C@H]1CN3)[C@H]2Oc1ccc(S(=O)(=O)N[C@H]2CCN(CCOCCNC(=O)NCCCCNC(=O)NCCOCCN3CC[C@H](NS(=O)(=O)c4ccc(O[C@H]5c6cc(Cl)cc(C#N)c6C[C@@H]5N5C[C@@H]6C[C@H]5CN6)cc4)C3)C2)cc1 [Example 130, bis(trifluoroacetic acid)]"
  Experimental target: "NHE3 (Homo sapiens)"
  pIC50: "6.00 to 7.00"

Request: # query: pIC50 of entry N#Cc1cc(Cl)cc2c1C[C@H](N1CCCNCC1)[C@H]2Oc1ccc(S(=O)(=O)N[C@H]2CCN(CCOCCNC(=O)NCCCCNC(=O)NCCOCCN3CC[C@H](NS(=O)(=O)c4ccc(O[C@H]5c6cc(Cl)cc(C#N)c6C[C@@H]5N5CCCNCC5)cc4)C3)C2)cc1 [Example 126]
Response: > 7.00

Request: What about this compound? Cc1cc(S(=O)(=O)NCCOCCOCCNC(=O)NCCCCNC(=O)NCCOCCOCCNS(=O)(=O)c2cc(C)c(O[C@H]3c4cc(Cl)cc(Cl)c4C[C@@H]3N(C)C)cc2C)c(C)cc1O[C@H]1c2cc(Cl)cc(Cl)c2C[C@@H]1N(C)C [Example 82]
Response: 6.00 to 7.00

Request: What about this compound? N[C@@H]1CCCN([C@H]2Cc3c(Cl)cc(Cl)cc3[C@@H]2Oc2ccc(S(=O)(=O)N3CC[C@@H](OCCOCCNC(=O)NCCCCNC(=O)NCCOCCO[C@@H]4CCN(S(=O)(=O)c5ccc(O[C@H]6c7cc(Cl)cc(Cl)c7C[C@@H]6N6CCC[C@@H](N)C6)cc5)C4)C3)cc2)C1 [Example 93]
Response: > 7.00
